Test system: Nucleic Acid
procedure.summary: Binding affinity to DNA assessed as change in melting temperature
Format: nucleic-acid assay
endpoint: ΔTm

mol_smiles=N=C(N)c1ccc(NC(=O)CCCC(=O)Nc2ccc(C(=N)N)cc2)cc1 readout_value="11.4 °C"
mol_smiles=N=C(N)c1ccc(NC(=O)CCCCCCC(=O)Nc2ccc(C(=N)N)cc2)cc1 readout_value="13.2 °C"
mol_smiles=N=C(N)c1ccc(NC(=O)CCCCC(=O)Nc2ccc(C(=N)N)cc2)cc1 readout_value="11.4 °C"
mol_smiles=N=C(N)c1ccc(NC(=O)CCC(=O)Nc2ccc(C(=N)N)cc2)cc1 readout_value="11.4 °C"
mol_smiles=N=C(N)c1cccc(NC(=O)CCCCC(=O)Nc2cccc(C(=N)N)c2)c1 readout_value="13.8 °C"

---

The entries below come with measured IC50 values attached.
Test system: Trypanosoma brucei brucei
procedure.summary: Antitrypanosomal activity against pentamidine-sensitive Trypanosoma brucei brucei LAB 110 EATRO
Assay type: functional, organism-based
endpoint: IC50 (nM)

mol_smiles=N=C(N)c1ccc(NC(=O)CCCCCCCCC(=O)Nc2ccc(C(=N)N)cc2)cc1 tgt="Trypanosoma brucei brucei" readout_value=2
mol_smiles=N=C(N)c1ccc(NC(=O)CCCCC(=O)Nc2cccc(C(=N)N)c2)cc1 tgt="Trypanosoma brucei brucei" readout_value=12
mol_smiles=N=C(N)c1ccc(NC(=O)CCCCCCC(=O)Nc2ccc(C(=N)N)cc2)cc1 tgt="Trypanosoma brucei brucei" readout_value=3
mol_smiles=N=C(N)c1ccc(NC(=O)CCCCCCCC(=O)Nc2ccc(C(=N)N)cc2)cc1 tgt="Trypanosoma brucei brucei" readout_value=400
mol_smiles=N=C(N)c1ccc(NC(=O)CCC(=O)Nc2ccc(C(=N)N)cc2)cc1 tgt="Trypanosoma brucei brucei" readout_value=9000
mol_smiles=N#Cc1ccc(NC(=O)CCCC(=O)Nc2ccc(C#N)cc2)cc1 tgt="Trypanosoma brucei brucei" readout_value=6500
mol_smiles=N=C(N)c1ccc(NC(=O)CCCCCCCCCCC(=O)Nc2ccc(C(=N)N)cc2)cc1 tgt="Trypanosoma brucei brucei" readout_value=8
mol_smiles=NC(=O)c1ccc(NC(=O)CCCCC(=O)Nc2ccc(C(N)=O)cc2)cc1 tgt="Trypanosoma brucei brucei" readout_value=2800
mol_smiles=N=C(N)c1ccc(NC(=O)CCCCCC(=O)Nc2ccc(C(=N)N)cc2)cc1 tgt="Trypanosoma brucei brucei" readout_value=2
mol_smiles=N=C(N)c1cccc(NC(=O)CCCCC(=O)Nc2cccc(C(=N)N)c2)c1 tgt="Trypanosoma brucei brucei" readout_value=41
mol_smiles=N=C(N)c1ccc(NC(=O)CCCC(=O)Nc2ccc(C(=N)N)cc2)cc1 tgt="Trypanosoma brucei brucei" readout_value=9
mol_smiles=N=C(N)c1ccc(NC(=O)CCCCC(=O)Nc2ccc(C(=N)N)cc2)cc1 tgt="Trypanosoma brucei brucei" readout_value=3

---

System: Nucleic Acid
procedure.summary: Binding affinity to poly(dA-dT)DNA assessed as change in melting temperature
Assay type: nucleic-acid assay
endpoint: ΔTm (°C)

mol_smiles=N=C(N)c1cccc(NC(=O)CCCCC(=O)Nc2cccc(C(=N)N)c2)c1 readout_value=13.8
mol_smiles=NC(=O)c1ccc(NC(=O)CCCCC(=O)Nc2ccc(C(N)=O)cc2)cc1 readout_value=7.5
mol_smiles=N=C(N)c1ccc(NC(=O)CCCCCCCC(=O)Nc2ccc(C(=N)N)cc2)cc1 readout_value=7.5
mol_smiles=N=C(N)c1ccc(NC(=O)CCCCCCCCC(=O)Nc2ccc(C(=N)N)cc2)cc1 readout_value=7.5
mol_smiles=N=C(N)c1ccc(NC(=O)CCCCCCC(=O)Nc2ccc(C(=N)N)cc2)cc1 readout_value=13.2
mol_smiles=N#Cc1ccc(NC(=O)CCCC(=O)Nc2ccc(C#N)cc2)cc1 readout_value=7.5
mol_smiles=N=C(N)c1ccc(NC(=O)CCCCCCCCCCC(=O)Nc2ccc(C(=N)N)cc2)cc1 readout_value=7.5
mol_smiles=N=C(N)c1ccc(NC(=O)CCCCC(=O)Nc2ccc(C(=N)N)cc2)cc1 readout_value=7.5
mol_smiles=N=C(N)c1ccc(NC(=O)CCCCC(=O)Nc2cccc(C(=N)N)c2)cc1 readout_value=7.5
mol_smiles=N=C(N)c1ccc(NC(=O)CCCC(=O)Nc2ccc(C(=N)N)cc2)cc1 readout_value=7.5

---

Test system: Nucleic Acid
procedure.summary: Binding affinity to poly(dA-dT)DNA assessed as change in melting temperature
Assay type: nucleic-acid assay
endpoint: ΔTm (°C)

compound="N=C(N)c1ccc(OCCCCCOc2ccc(C(=N)N)cc2)cc1 [PENTAMIDINE]" endpoint=ΔTm unit_symbol=°C readout_value=21.6
compound=NC(=O)c1cccc(NC(=O)CCCCC(=O)Nc2cccc(C(N)=O)c2)c1 endpoint=ΔTm unit_symbol=°C readout_value=7.5
compound=N=C(N)c1ccc(NC(=O)CCCCCC(=O)Nc2ccc(C(=N)N)cc2)cc1 endpoint=ΔTm unit_symbol=°C readout_value=7.5
compound=N=C(N)c1ccc(NC(=O)CCC(=O)Nc2ccc(C(=N)N)cc2)cc1 endpoint=ΔTm unit_symbol=°C readout_value=7.5
